# ASSAYED TARGET: Epidermal growth factor receptor (Homo sapiens)
# ASSAY PROCEDURE: Assay for Inhibitors of the ERK Signaling Pathway using a Homogeneous Screening Assay: EGFR T790M/L858R Kinase Inhibition
# CONDITION SUMMARY: series mostly up to 65.8 µM
Records with an inconclusive call do not appear. Active and inactive are the calls of the source. Calls follow the shape of the dose curve; as a rule, active = well fitted curve in the direction sought with a large enough effect; inconclusive = small, poorly fitted or top-dose-only effect, or effect the other way, or another doubt; inactive = no such curve, though single readings can be large or run the other way.
Hi! Could you answer with just one of these? active, inactive

Problem: What call does the record list for O=C(Nc1nc(-c2ccccc2)cs1)c1ccc(N2CCOCC2)c([N+](=O)[O-])c1 ?
Result: inactive

Problem: Please give the result for Cc1ccc2nc(=O)c(NNc3ccccc3)cnc2c1 too.
Result: active

Problem: What do you have for Cn1nc(-c2ccccn2)nc2c(=O)n(C)c(=O)nc1-2 ?
Result: inactive

Problem: // same read-out, input: CNc1cccc2c1C(=O)c1ccccc1C2=O
Result: inactive

Problem: Note, next up: Fc1ccc(Nc2ncnc3sc4c(c23)CCC4)cc1F
Result: inactive

Problem: Quick one: COc1ccc(C(=O)c2ccc(Cl)c([N+](=O)[O-])c2)cc1
Result: inactive

Problem: Here is the next compound: Cc1nc2ccccc2nc(=O)c1NNc1ccccc1
Result: active
